biological target: hCB1 (Homo sapiens, UniProt P21554); assay: bioSensAll ebBRET signaling profiling, hCB1; type: cell-based; parameters: host or cells: HEK293SL cells, transient PEI transfection; conditions: hCB1 Gz
Sequence (P21554 whole entry): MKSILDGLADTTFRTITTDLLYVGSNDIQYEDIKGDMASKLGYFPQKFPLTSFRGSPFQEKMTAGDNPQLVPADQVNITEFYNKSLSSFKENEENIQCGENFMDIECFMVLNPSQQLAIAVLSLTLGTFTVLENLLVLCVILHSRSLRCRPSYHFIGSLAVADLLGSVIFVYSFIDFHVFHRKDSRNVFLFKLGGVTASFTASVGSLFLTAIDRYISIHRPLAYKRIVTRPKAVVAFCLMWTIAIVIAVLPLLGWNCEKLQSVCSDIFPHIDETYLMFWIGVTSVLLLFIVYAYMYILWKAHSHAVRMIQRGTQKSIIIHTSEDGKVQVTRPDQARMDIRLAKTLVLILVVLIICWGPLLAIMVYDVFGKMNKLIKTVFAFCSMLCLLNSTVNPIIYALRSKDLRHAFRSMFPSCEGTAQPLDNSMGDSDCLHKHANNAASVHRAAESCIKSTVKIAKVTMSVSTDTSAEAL
reported.endpoint: pEC50 [95% CI]

Some compounds with recorded pEC50 [95% CI]:
{"compound": "Cc1cc(C(=O)NC(c2ccccc2)c2ccco2)nn1-c1cccc(C#N)c1 (centres unmarked)", "pEC50 [95% CI]": "7.3 [6.9 – 7.7]"}
{"compound": "COC(=O)[C@@H]1[C@@H]2CCC[C@@H]2CN1C(=O)c1cc(C)n(-c2cccc(C(F)(F)F)c2)n1", "pEC50 [95% CI]": "6.5 [5.9 – 7.0]"}
{"compound": "COC(=O)C(NC(=O)c1cc(C)n(-c2cccc(C(F)(F)F)c2)n1)c1cccs1 (centres unmarked)", "pEC50 [95% CI]": "7.8 [7.4 – 8.1]"}
{"compound": "COC(=O)[C@](C)(NC(=O)c1cc(C)n(-c2cccc(C(F)(F)F)c2)n1)c1cccs1", "pEC50 [95% CI]": "7.5 [6.9 – 7.8]"}
{"compound": "COC(=O)[C@@H]1[C@@H]2CCC[C@@H]2CN1C(=O)c1cc(C)n(-c2cccc(Cl)c2)n1 (racemic)", "pEC50 [95% CI]": "5.9 [5.4 – 6.3]"}

Query: # returns recorded pEC50 [95% CI] (system: hCB1 (Homo sapiens, UniProt P21554)) for "COC(=O)[C@@H]1[C@@H]2CC[C@@H]2CN1C(=O)c1cc(C)n(-c2cccc(C(F)(F)F)c2)n1"
Result: 6.1 [5.9 – 6.4]

Query: # returns recorded pEC50 [95% CI] (system: hCB1 (Homo sapiens, UniProt P21554)) for CC(=O)C(c1cccs1)N(C)C(=O)c1cc(C)n(-c2cccc(C(F)(F)F)c2)n1 (centres unmarked)
Result: 5.9 [6.0 – 6.2]

Query: # returns recorded pEC50 [95% CI] (system: hCB1 (Homo sapiens, UniProt P21554)) for "Cc1cc(C(=O)NC(c2ccco2)c2ccco2)nn1-c1cccc(C(F)(F)F)c1"
Result: 6.9 [6.5 – 7.4]
